Target: human Matrix Metalloproteinase-2 (MMP2), MMP2 (gene 4313)
Experiment: NVS_ENZ_hMMP2: NovaScreen (NVS) Enzymatic Assay for human Matrix Metalloproteinase-2 (MMP2) (AID 2283184)
Inconclusive results are not listed. Activity calls are given as the source filed them. The calls were made as follows: active = hit-call score of the fitted dose curve at least 0.9, where 1 is the maximum; inconclusive = response in the unintended direction; inactive = score below 0.9.
Possible outcomes: active, inactive

compound=CC(C)c1cccc(C(C)C)c1N1C(=O)c2ccc(O)cc2C1=O test_system="human Matrix Metalloproteinase-2 (MMP2), MMP2 (gene 4313)" class=inactive
compound=COC(=O)CC(=O)OC test_system="human Matrix Metalloproteinase-2 (MMP2), MMP2 (gene 4313)" class=active
compound=CCc1cc(SCc2sc(-c3ccc(C(F)(F)F)cc3)nc2CN2CCN(c3ccc(OC)cc3)CC2)ccc1OCC(=O)O test_system="human Matrix Metalloproteinase-2 (MMP2), MMP2 (gene 4313)" class=active
compound="CCCCC(CC)COC(=O)c1ccc(C(=O)OCC(CC)CCCC)cc1 (stereo unspecified)" test_system="human Matrix Metalloproteinase-2 (MMP2), MMP2 (gene 4313)" class=inactive
compound=O=C(O)CCN(C1(C(=O)NO)CCCC1)S(=O)(=O)c1ccc(Oc2ccc(F)cc2)cc1 test_system="human Matrix Metalloproteinase-2 (MMP2), MMP2 (gene 4313)" class=active
compound=CC[C@H](C)C(=O)O[C@H]1C[C@@H](C)C=C2C=C[C@H](C)[C@H](CC[C@@H]3C[C@@H](O)CC(=O)O3)[C@H]21 test_system="human Matrix Metalloproteinase-2 (MMP2), MMP2 (gene 4313)" class=inactive

====

Assay: ATG_Ets_CIS: Attagene CIS-FACTORIAL HepG2 Assay for human Erythroblast Transformation Specific (ETS) (AID 2282941)
Conditions: HepG2 ETS cis-reporter transcription, actives raise or lower the signal
The source made the active and inactive calls. The calls were made as follows: active = hit-call score of the fitted dose curve at least 0.9, where 1 is the maximum; inactive = score below 0.9.
Possible outcomes: TRUE for active, FALSE for inactive

compound=CCNc1ccccc1 class=FALSE
compound=Cc1ccc(N)cc1O class=FALSE
compound=C=CC(=C)CCC=C(C)C class=FALSE
compound=Oc1ccc2c(c1)-c1ccccc1C2 class=FALSE
compound=Cn1c(=O)c2c(ncn2C)n(C)c1=O class=FALSE
compound=CCOc1cccc(-n2cc(C(=O)N3CCN(c4cc(C(=O)O)c5ccccc5c4)CC3)nc2-c2ccc(C)cc2)c1 class=FALSE
compound=O=C(OC[C@H]1O[C@@H](OC(=O)c2cc(O)c(O)c(OC(=O)c3cc(O)c(O)c(O)c3)c2)[C@H](OC(=O)c2cc(O)c(O)c(OC(=O)c3cc(O)c(O)c(O)c3)c2)[C@@H](OC(=O)c2cc(O)c(O)c(OC(=O)c3cc(O)c(O)c(O)c3)c2)[C@@H]1OC(=O)c1cc(O)c(O)c(OC(=O)c2cc(O)c(O)c(O)c2)c1)c1cc(O)c(O)c(OC(=O)c2cc(O)c(O)c(O)c2)c1 class=FALSE
compound=CC(C)c1cccc(C(C)C)c1N1C(=O)c2ccc(O)cc2C1=O class=FALSE
compound=COC(=O)c1ccccc1O class=FALSE
compound=O=C1CCCCCN1 class=FALSE
compound=CNCc1ccc(NC(=O)c2c[nH]c3c2C(=O)CCC3)cc1 class=FALSE
compound="CCCCC(CC)COC(=O)CCCCCCCCC(=O)OCC(CC)CCCC (configuration not stated)" class=FALSE
compound=COc1cccc(-c2ccc(/C=C\CN3CCCCCC3)cc2Cl)c1 class=FALSE
compound=COC(=O)c1c(Cl)c(Cl)c(C(=O)OC)c(Cl)c1Cl class=FALSE
compound=Cc1ccc(O)cc1 class=FALSE
compound=CC(=O)OC[C@H]1O[C@@](COC(C)=O)(O[C@H]2O[C@H](COC(C)=O)[C@@H](OC(C)=O)[C@H](OC(C)=O)[C@H]2OC(C)=O)[C@@H](OC(C)=O)[C@@H]1OC(C)=O class=FALSE
compound=CCCCCCCCO class=FALSE
compound="CC(C)=CCCC(C)CCO (configuration not stated)" class=FALSE
compound=O=P(OC(CCl)CCl)(OC(CCl)CCl)OC(CCl)CCl class=TRUE
compound="O=c1n(CC2CO2)c(=O)n(CC2CO2)c(=O)n1CC1CO1 (configuration not stated)" class=TRUE
compound=CC(C)CCO class=FALSE
compound="Fc1ccccc1[C@@H](F)COC1CCC(Nc2ncnc3[nH]ncc23)CC1 (some centres not stated)" class=FALSE
compound=CC(C)CCCCCCOC(=O)c1ccc(C(=O)OCCCCCCC(C)C)c(C(=O)OCCCCCCC(C)C)c1 class=FALSE
compound=Cc1[nH]cnc1C[C@H]1CCc2c(C)c3ccccc3n2C1=O class=FALSE
compound=C=CCCCCCCCCC(=O)O class=FALSE
compound="CC/C(=C\\C(=N/O)C(N)=O)C(C)[N+](=O)[O-] (configuration not stated)" class=FALSE
compound=CC1(C)C(=O)N(Br)C(=O)N1Br class=FALSE
compound=CC(C)CCCCCCCOC(=O)CCCCC(=O)OCCCCCCCC(C)C class=FALSE
compound=C[C@](N)(Cc1ccc(O)c(O)c1)C(=O)O class=FALSE
compound=COc1ccc(/C=C/S(=O)(=O)NC(=O)c2ccc(C)cc2Cl)cc1 class=FALSE
compound=C1=CCCC=CCCC=CCC1 class=FALSE
compound=O=C(CCCCCCCCc1cccnc1)N1CCC(C=C(c2ccccc2)c2ccccc2)CC1 class=FALSE
compound="O=C1CCC(N2C(=O)c3ccccc3C2=O)C(=O)N1 (configuration not stated)" class=FALSE
compound=C1N2CN3CN1CN(C2)C3 class=FALSE
compound=CC(C)=CCC/C(C)=C/CO class=FALSE
compound=O=C(NS(=O)(=O)/C=C/c1ccccc1)c1ccc(F)cc1Cl class=FALSE
compound=Clc1nc(Cl)c(Cl)c(Cl)c1Cl class=FALSE
compound="CC(C)CC(C)(O)C#CC(C)(O)CC(C)C (configuration not stated)" class=FALSE
compound=CCOC(=O)CC(CC(=O)OCC)(OC(C)=O)C(=O)OCC class=FALSE
compound=CC(=O)c1ccc2c(c1)[C@H](NC(=O)c1ccc(F)cc1)[C@@H](O)C(C)(C)O2 class=FALSE
compound=CCOCCO class=FALSE
compound=CC(C)(O)c1coc(S(=O)(=O)NC(=O)Nc2c3c(cc4c2CCC4)CCC3)c1 class=FALSE
compound=CC(C)=CCC/C(C)=C\CO class=FALSE
compound=CCCCCCc1ccc(O)cc1O class=FALSE
compound=CC(C)=CCCC(C)=CC=O class=FALSE
compound=CCn1nc(Cc2ccccc2)cc1C1CCN(C[C@H]2C[C@H](N(C)[C@@H](C(=O)O)C(C)C)C[C@@H]2c2cccc(F)c2)CC1 class=FALSE
compound=CC[C@H]1CC[C@H](NCc2cc3c(cc2OC)[C@H]2C[C@H]2C(=O)N3C)[C@H](c2ccccc2)N1 class=TRUE
